Read-out: Urokinase-type plasminogen activator receptor (uPAR), PLAUR (gene 5329)
ASSAY DETAILS: BSK_4H_uPAR: BioMAP Diversity Plus: 4H Assay for Urokinase-type plasminogen activator receptor (uPAR) Biomarker Activity (AID 2283030)
CONDITION PARAMETERS: primary human endothelial cells (HUVEC); actives raise or lower the signal
The source made the active and inactive calls. Rule for the calls: active = hit-call score of the fitted dose curve at least 0.9, where 1 is the maximum; inactive = score below 0.9.
Assign a class; possible classes are label 1 = active, label 0 = inactive

Prompt line: Dear colleague, could you share the recorded outcome for CC(C)(C)c1ccc(CSc2cnn(C(C)(C)C)c(=O)c2Cl)cc1 when you have a moment?
Response line: label 0

Prompt line: What classification did OC(c1ccc(Cl)cc1)(c1cncnc1)c1ccccc1Cl (stereo not given) end up with in this test?
Response line: label 1

Prompt line: Tell me the recorded outcome of this test for COC(=O)N(OC)c1ccccc1COc1ccn(-c2ccc(Cl)cc2)n1 .
Response line: label 1

Prompt line: Test call for this molecule, please: CCCC1COC(Cn2cncn2)(c2ccc(Cl)cc2Cl)O1 (stereo not given)
Response line: label 0

Prompt line: Hi, do you know how CCOC(=O)C(Cl)Cc1cc(-n2nc(C)n(C(F)F)c2=O)c(F)cc1Cl (stereo not given) came out in this test?
Response line: label 0
